- METHOD_SUMMARY: Acute oral toxicity in male mice, LD50 by Litchfield-Wilcoxon method (Test Example 5)
- TEST_SETTINGS: mouse, in vivo, mortality on the seventh day
As shown below, each of these compounds has a reported LD50 at 168 h value.

- COMPOUND: "CCOC(=O)N(CCC#N)SN(C)C(=O)Oc1cccc2c1OC(C)(C)C2 [Example 51]"
  LD50 at 168 h / mg/kg: 88
- COMPOUND: "CCOC(=O)CCN(SN(C)C(=O)Oc1cccc2c1OC(C)(C)C2)C(C)CC (stereo not drawn) [Example 29]"
  LD50 at 168 h / mg/kg: 120
- COMPOUND: "CCCCN(CCC#N)SN(C)C(=O)Oc1cccc2c1OC(C)(C)C2 [Example 39]"
  LD50 at 168 h / mg/kg: 110
- COMPOUND: "CCCCCCN(CCC(=O)OCC)SN(C)C(=O)Oc1cccc2c1OC(C)(C)C2 [Example 31]"
  LD50 at 168 h / mg/kg: 135
- COMPOUND: "CC(C)OC(=O)CN(CC(=O)OC(C)C)SN(C)C(=O)Oc1cccc2c1OC(C)(C)C2 [Example 4]"
  LD50 at 168 h / mg/kg: 122
- COMPOUND: "CCCCN(CCC(=O)OCC)SN(C)C(=O)Oc1cccc2c1OC(C)(C)C2 [Example 27]"
  LD50 at 168 h / mg/kg: 105
- COMPOUND: "CCOC(=O)CN(SN(C)C(=O)Oc1cccc2c1OC(C)(C)C2)c1ccc(OC)cc1 [Example 22]"
  LD50 at 168 h / mg/kg: 88
- COMPOUND: "CC(C)CN(CCC#N)SN(C)C(=O)Oc1cccc2c1OC(C)(C)C2 [Example 40]"
  LD50 at 168 h / mg/kg: 103
- COMPOUND: "CN(SN(CCC#N)C1CCCCC1)C(=O)Oc1cccc2c1OC(C)(C)C2 [Example 42]"
  LD50 at 168 h / mg/kg: 88
- COMPOUND: "CN(SN(CC#N)CC#N)C(=O)Oc1cccc2c1OC(C)(C)C2 [Example 1]"
  LD50 at 168 h / mg/kg: 58
- COMPOUND: "CN(SN(CC#N)c1ccccc1)C(=O)Oc1cccc2c1OC(C)(C)C2 [Example 35]"
  LD50 at 168 h / mg/kg: 95
- COMPOUND: "CN(SN(CC(=O)OC1CCCCC1)CC(=O)OC1CCCCC1)C(=O)Oc1cccc2c1OC(C)(C)C2 [Example 5]"
  LD50 at 168 h / mg/kg: 90
- COMPOUND: "CCOC(=O)CCCN(CC(=O)OCC)SN(C)C(=O)Oc1cccc2c1OC(C)(C)C2 [Example 10]"
  LD50 at 168 h / mg/kg: 115
- COMPOUND: "CCOC(=O)CCN(SN(C)C(=O)Oc1cccc2c1OC(C)(C)C2)C(C)C [Example 23]"
  LD50 at 168 h / mg/kg: 113
- COMPOUND: "COC(=O)CN(CC(=O)OC)SN(C)C(=O)Oc1cccc2c1OC(C)(C)C2 [Example 3]"
  LD50 at 168 h / mg/kg: 145
